Target: Casein kinase I isoform gamma-1 (Homo sapiens);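 further: reported value is the mean inhibition of CK1 gamma-1 kinase activity across replicate measurements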
Settings: at 1 µM
Lab note: compare inhibition against 5%. Equal or greater, write criterion met. Smaller, write criterion not met.

compound	category_label
CCn1c(-c2nonc2N)nc2c(C#CC(C)(C)O)nc(OC[C@H](N)c3ccccc3)cc21	criterion met
Cc1ccc(O)cc1Nc1ccnc2cc(-c3ccccn3)ccc12	criterion met
O=S(=O)(CCNCc1ccc(-c2ccc3ncnc(Nc4ccc(OCc5cccc(F)c5)c(Cl)c4)c3c2)o1)c1ccccc1	criterion met
CN1CCC(n2cnc(-c3ccc(F)cc3)c2-c2ccnc(Nc3ccccc3)n2)CC1	criterion met
CS(=O)(=O)CCNCc1coc(-c2ccc3ncnc(Nc4ccc(OCc5ccccc5)cc4)c3c2)c1	criterion not met
Cc1cccc2c1NC(=O)/C2=N\Nc1ccc(S(N)(=O)=O)cc1	criterion not met
Fc1ccc(-c2nn3ccccc3c2-c2ccncc2)cc1	criterion met
CN(C)CCOc1ccc(-c2nc(-c3ccncc3)c(-c3ccc4c(c3)CC/C4=N\O)[nH]2)cc1	criterion not met
[O-][S+]1CCN(Cc2ccc(-c3ccc4ncnc(Nc5ccc(OCc6cccc(F)c6)c(Cl)c5)c4c3)o2)CC1	criterion met
Fc1ccc(-c2nn3ncccc3c2-c2ccnc(Nc3ccc4c(c3)OCCO4)n2)cc1	criterion met
COc1cccc(-c2c[nH]c3c(N/N=C/c4ccncc4)ncnc23)c1	criterion not met
Fc1ccc(-c2cc(-c3c[nH]nc3-c3ccccn3)ccn2)cc1	criterion met
CC(C)(CO)CNC(=O)c1ccc2c(c1)/C(=N/Nc1ccc(S(N)(=O)=O)cc1)C(=O)N2	criterion not met
CC1=C(C(=O)Nc2cc(Cl)c3[nH]ncc3c2)C(c2ccc(C(F)(F)F)cc2)CC(=O)N1 (centres undefined)	criterion not met

* * *

Target: Insulin receptor-related protein (Homo sapiens) (UniProt P14616);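 further: mean percent inhibition of IRR, reported within the GSK PKIS screening panel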
Sequence (P14616 27-742 limits assumed): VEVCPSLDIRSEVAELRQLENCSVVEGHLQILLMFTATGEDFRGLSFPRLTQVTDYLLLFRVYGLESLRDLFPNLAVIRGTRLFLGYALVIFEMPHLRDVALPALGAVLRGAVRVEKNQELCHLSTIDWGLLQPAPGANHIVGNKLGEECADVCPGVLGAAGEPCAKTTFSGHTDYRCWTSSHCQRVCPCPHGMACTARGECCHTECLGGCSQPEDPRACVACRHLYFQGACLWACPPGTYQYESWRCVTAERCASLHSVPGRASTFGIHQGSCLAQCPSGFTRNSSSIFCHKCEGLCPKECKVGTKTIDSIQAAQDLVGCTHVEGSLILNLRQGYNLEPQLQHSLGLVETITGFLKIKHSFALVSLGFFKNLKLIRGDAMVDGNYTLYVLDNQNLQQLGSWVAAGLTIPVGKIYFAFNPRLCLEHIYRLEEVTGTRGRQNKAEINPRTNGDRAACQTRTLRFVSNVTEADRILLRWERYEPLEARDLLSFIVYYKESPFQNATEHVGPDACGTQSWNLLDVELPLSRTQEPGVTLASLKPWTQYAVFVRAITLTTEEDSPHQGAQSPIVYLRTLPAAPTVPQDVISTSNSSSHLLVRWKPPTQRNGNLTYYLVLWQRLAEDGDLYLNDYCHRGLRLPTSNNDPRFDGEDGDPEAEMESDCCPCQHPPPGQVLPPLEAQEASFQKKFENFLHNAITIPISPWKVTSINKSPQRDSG
Sequence (P14616 747-1297 limits assumed): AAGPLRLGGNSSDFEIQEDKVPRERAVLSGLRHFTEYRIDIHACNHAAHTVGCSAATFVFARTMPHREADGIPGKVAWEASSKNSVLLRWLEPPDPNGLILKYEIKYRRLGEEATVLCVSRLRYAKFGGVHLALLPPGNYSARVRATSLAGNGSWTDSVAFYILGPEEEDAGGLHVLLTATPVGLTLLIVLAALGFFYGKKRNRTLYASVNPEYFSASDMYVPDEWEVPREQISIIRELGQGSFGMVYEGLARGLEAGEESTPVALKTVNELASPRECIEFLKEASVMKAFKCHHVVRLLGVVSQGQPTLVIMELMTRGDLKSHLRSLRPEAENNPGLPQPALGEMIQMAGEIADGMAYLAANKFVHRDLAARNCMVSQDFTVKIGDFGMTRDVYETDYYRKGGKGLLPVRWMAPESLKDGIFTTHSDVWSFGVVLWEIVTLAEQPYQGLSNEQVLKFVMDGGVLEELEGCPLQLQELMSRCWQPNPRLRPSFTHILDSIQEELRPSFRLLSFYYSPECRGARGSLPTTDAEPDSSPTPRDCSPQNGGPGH
Conditions: at 0.1 µM
quantity: inhibition

test_smiles	system_under_test	result
c1ccc(-c2nc3n(c2-c2ccc4c(c2)OCO4)CCC3)nc1	Insulin receptor-related protein (Homo sapiens) (UniProt P14616)	0.08%
NC(=O)c1sc(-n2cnc3ccc(C(F)(F)F)cc32)cc1OCc1ccccc1Br	Insulin receptor-related protein (Homo sapiens) (UniProt P14616)	1.61%
Nc1nc(-c2ccc(F)cc2)c(-c2ccc3ncccc3n2)s1	Insulin receptor-related protein (Homo sapiens) (UniProt P14616)	2.47%
CC(C)(CO)CNC(=O)c1ccc2c(c1)/C(=N/Nc1ccc(S(N)(=O)=O)cc1)C(=O)N2	Insulin receptor-related protein (Homo sapiens) (UniProt P14616)	-2%
COc1ccc(-c2cc3c(N)ncnc3o2)cc1	Insulin receptor-related protein (Homo sapiens) (UniProt P14616)	-2.87%
Cc1cccc(Nc2ncc(-c3ccccc3)o2)c1	Insulin receptor-related protein (Homo sapiens) (UniProt P14616)	2.57%
COC(=O)Nc1nc2ccc(Oc3ccc(NC(=O)Nc4cccc(Cl)c4)cc3)cc2[nH]1	Insulin receptor-related protein (Homo sapiens) (UniProt P14616)	-1.26%
CCn1c(-c2nonc2N)nc2c(C#CC(C)(C)O)ncc(OC3CCNCC3)c21	Insulin receptor-related protein (Homo sapiens) (UniProt P14616)	1.16%
CC(=O)NCc1cccc(C#Cc2cncnc2Nc2ccc(OCc3cccc(F)c3)c(Cl)c2)c1	Insulin receptor-related protein (Homo sapiens) (UniProt P14616)	-0.93%
CN(C)CCOc1ccc(-c2nc(-c3ccncc3)c(-c3ccc4c(c3)CC/C4=N\O)[nH]2)cc1	Insulin receptor-related protein (Homo sapiens) (UniProt P14616)	6.12%
Cc1ccc(O)cc1Nc1ccnc2cc(-c3ccccn3)ccc12	Insulin receptor-related protein (Homo sapiens) (UniProt P14616)	5.36%
COC(=O)c1sc(-n2cnc3cc(OC)c(OC)cc32)cc1OCc1ccccc1C(F)(F)F	Insulin receptor-related protein (Homo sapiens) (UniProt P14616)	1.78%
NS(=O)(=O)c1ccc(N/N=C2\C(=O)Nc3ccc4ncccc4c32)cc1	Insulin receptor-related protein (Homo sapiens) (UniProt P14616)	-0.5%
Fc1cccc(COc2ccc(Nc3ncnc4sc(-c5ccco5)cc34)cc2Cl)c1	Insulin receptor-related protein (Homo sapiens) (UniProt P14616)	2.1%
COc1ccc(-c2cc(-c3c[nH]nc3-c3ccccn3)ccn2)cc1	Insulin receptor-related protein (Homo sapiens) (UniProt P14616)	3.63%
CC(C)COC(=O)c1ccc2c(c1)/C(=C/Nc1ccc(S(N)(=O)=O)cc1)C(=O)N2	Insulin receptor-related protein (Homo sapiens) (UniProt P14616)	-3.52%
COC(=O)Nc1nc2ccc(S(=O)(=O)c3ccc(NC(=O)Nc4cc(C(F)(F)F)ccc4F)cc3)cc2[nH]1	Insulin receptor-related protein (Homo sapiens) (UniProt P14616)	0.18%
COc1ccc2[nH]c3c4[nH]c5ccc(OC)cc5c4c4c(c3c2c1)C(=O)NC4=O	Insulin receptor-related protein (Homo sapiens) (UniProt P14616)	3.27%
COc1ccc2c(-c3ccnc(Nc4cccc(OC(F)(F)F)c4)n3)cnn2n1	Insulin receptor-related protein (Homo sapiens) (UniProt P14616)	4.74%

* * *

Target: Serine/threonine-protein kinase PAK 6 (Homo sapiens) (UniProt Q9NQU5);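 further: values are mean percent inhibition of PAK6 kinase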
Sequence (Q9NQU5 whole entry, looked up): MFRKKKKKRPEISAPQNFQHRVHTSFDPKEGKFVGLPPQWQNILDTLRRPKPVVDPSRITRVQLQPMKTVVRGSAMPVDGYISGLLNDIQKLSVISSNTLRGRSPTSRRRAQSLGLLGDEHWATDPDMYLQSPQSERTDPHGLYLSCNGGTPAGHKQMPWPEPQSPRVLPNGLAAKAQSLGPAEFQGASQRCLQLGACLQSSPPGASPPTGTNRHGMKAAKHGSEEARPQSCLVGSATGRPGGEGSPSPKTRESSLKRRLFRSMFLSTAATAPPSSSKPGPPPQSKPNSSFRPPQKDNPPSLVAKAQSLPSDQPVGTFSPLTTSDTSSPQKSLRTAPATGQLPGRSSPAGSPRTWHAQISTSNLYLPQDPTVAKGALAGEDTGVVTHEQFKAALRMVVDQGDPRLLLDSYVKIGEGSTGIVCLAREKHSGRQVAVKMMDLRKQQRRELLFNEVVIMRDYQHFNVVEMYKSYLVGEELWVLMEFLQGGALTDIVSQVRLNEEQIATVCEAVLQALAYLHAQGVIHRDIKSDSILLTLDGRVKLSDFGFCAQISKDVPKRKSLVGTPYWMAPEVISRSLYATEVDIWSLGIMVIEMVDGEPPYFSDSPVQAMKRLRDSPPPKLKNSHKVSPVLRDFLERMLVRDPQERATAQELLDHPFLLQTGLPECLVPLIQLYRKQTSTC
Conditions: at 1 µM
quantity: inhibition (%)

test_smiles	quantity	numeric_value
Fc1ccc(-c2nn3ncccc3c2-c2ccnc(Nc3ccc4c(c3)OCCO4)n2)cc1	inhibition	-1.03
COc1ccc(-c2nn3ncccc3c2-c2ccnc(Nc3ccc4c(c3)OCCO4)n2)cc1	inhibition	-1.85
NS(=O)(=O)c1ccc(Nc2ncc(-c3ccccc3)o2)cc1	inhibition	8.68
COc1cccc(-c2c[nH]c3c(N/N=C/c4ccncc4)ncnc23)c1	inhibition	-1.79
c1cc(-c2cnn3nc(N4CCOCC4)ccc23)nc(NC2CC2)n1	inhibition	6.8
CCN1CCC(CC(=O)Nc2n[nH]c3nnc(-c4cccc(F)c4F)cc23)CC1	inhibition	0.04
CCn1c(-c2nonc2N)nc2ccccc21	inhibition	-4.14
c1ccc(-c2nc3n(c2-c2ccc4c(c2)OCO4)CCC3)nc1	inhibition	-6.18
Fc1ccc(-c2cc(-c3c[nH]nc3-c3ccccn3)ccn2)cc1	inhibition	-4.06
CS(=O)(=O)CCNCc1coc(-c2ccc3ncnc(Nc4ccc(OCc5ccccc5)cc4)c3c2)c1	inhibition	-4.66
CCOc1ccc2c(-c3ccnc(Nc4cccc(C(F)(F)F)c4)n3)cnn2n1	inhibition	-3.51
Clc1ccc(-c2nn3ncccc3c2-c2ccnc(Nc3ccccc3)n2)cc1	inhibition	1.5
c1ccc(COc2ccc(Nc3ncnc4ccc(-c5ccco5)cc34)cc2)cc1	inhibition	1.25
NS(=O)(=O)c1ccc(N/N=C2\C(=O)Nc3ccc4ncccc4c32)cc1	inhibition	1.45
CNC(=O)c1cc(-c2ccc(F)cc2)cc(-c2ccc(S(=O)(=O)N3CCCC3)cc2)c1N	inhibition	-8.22

* * *

Target: Serine/threonine-protein kinase BRSK2 (Homo sapiens) (UniProt Q8IWQ3);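 further: mean kinase inhibition reported within the GSK PKIS dataset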
Sequence (Q8IWQ3 whole entry): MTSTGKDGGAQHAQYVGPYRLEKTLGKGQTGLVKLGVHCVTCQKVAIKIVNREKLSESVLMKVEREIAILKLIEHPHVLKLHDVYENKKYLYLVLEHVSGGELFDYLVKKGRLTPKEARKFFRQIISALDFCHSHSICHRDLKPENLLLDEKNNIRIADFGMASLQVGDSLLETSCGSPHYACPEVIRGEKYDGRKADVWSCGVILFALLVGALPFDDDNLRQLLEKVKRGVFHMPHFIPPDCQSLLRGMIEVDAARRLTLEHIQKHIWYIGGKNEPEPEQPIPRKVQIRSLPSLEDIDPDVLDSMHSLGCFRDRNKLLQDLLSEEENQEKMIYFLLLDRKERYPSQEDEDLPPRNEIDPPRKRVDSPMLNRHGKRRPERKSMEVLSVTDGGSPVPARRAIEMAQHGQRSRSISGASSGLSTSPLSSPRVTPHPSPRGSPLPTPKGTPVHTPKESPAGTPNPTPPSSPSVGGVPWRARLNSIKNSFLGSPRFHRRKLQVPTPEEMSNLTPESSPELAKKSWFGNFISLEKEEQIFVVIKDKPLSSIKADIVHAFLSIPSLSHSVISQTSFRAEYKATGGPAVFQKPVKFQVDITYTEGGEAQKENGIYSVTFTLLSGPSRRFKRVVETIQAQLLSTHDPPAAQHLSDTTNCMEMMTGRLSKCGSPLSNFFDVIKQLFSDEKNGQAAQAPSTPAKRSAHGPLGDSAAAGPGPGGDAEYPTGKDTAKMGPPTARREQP
Settings: at 1 µM
quantity: inhibition (%)

test_smiles	system_under_test	numeric_value
CN(C)CCOc1ccc(-c2nc(-c3ccncc3)c(-c3ccc4c(c3)CC/C4=N\O)[nH]2)cc1	Serine/threonine-protein kinase BRSK2 (Homo sapiens) (UniProt Q8IWQ3)	3.51
Nc1nc(-c2cccc(Cl)c2)c(-c2ccc3ncccc3n2)s1	Serine/threonine-protein kinase BRSK2 (Homo sapiens) (UniProt Q8IWQ3)	4.51
Nc1nc(-c2ccc(F)cc2)c(-c2ccc3ncccc3n2)s1	Serine/threonine-protein kinase BRSK2 (Homo sapiens) (UniProt Q8IWQ3)	5.28
Nc1ncc(-c2cccc(S(N)(=O)=O)c2)c2scc(-c3ccc(F)c(Cl)c3)c12	Serine/threonine-protein kinase BRSK2 (Homo sapiens) (UniProt Q8IWQ3)	6.56
O=S(=O)(CCNCc1ccc(-c2ccc3ncnc(Nc4ccc(OCc5cccc(F)c5)c(Cl)c4)c3c2)o1)c1ccccc1	Serine/threonine-protein kinase BRSK2 (Homo sapiens) (UniProt Q8IWQ3)	3.94
CC(=O)NCc1cccc(C#Cc2cncnc2Nc2ccc(OCc3cccc(F)c3)c(Cl)c2)c1	Serine/threonine-protein kinase BRSK2 (Homo sapiens) (UniProt Q8IWQ3)	5.12
COc1cc(/C=N/Nc2ncnc3[nH]ncc23)ccc1O	Serine/threonine-protein kinase BRSK2 (Homo sapiens) (UniProt Q8IWQ3)	22.9
N#Cc1c(NC(=O)c2ccc(F)cc2)sc2c1CCCC2	Serine/threonine-protein kinase BRSK2 (Homo sapiens) (UniProt Q8IWQ3)	2.38
CC(=O)Nc1cccc(C#Cc2cncnc2Nc2ccc(OCc3cccc(F)c3)c(Cl)c2)c1	Serine/threonine-protein kinase BRSK2 (Homo sapiens) (UniProt Q8IWQ3)	0.36
COc1cc2c(cc1Nc1nc(Nc3ccsc3C(N)=O)c3cc[nH]c3n1)N(C(=O)CN(C)C)CCC2(C)C	Serine/threonine-protein kinase BRSK2 (Homo sapiens) (UniProt Q8IWQ3)	4.71
COc1cc(Nc2nccc(Nc3ccc4c(C)n[nH]c4c3)n2)cc(OC)c1OC	Serine/threonine-protein kinase BRSK2 (Homo sapiens) (UniProt Q8IWQ3)	1.97
CN1CCC(n2cnc(-c3ccc(F)cc3)c2-c2ccnc(N)n2)CC1	Serine/threonine-protein kinase BRSK2 (Homo sapiens) (UniProt Q8IWQ3)	7.04
CCc1nn2ncccc2c1-c1ccnc(NC2CC2)n1	Serine/threonine-protein kinase BRSK2 (Homo sapiens) (UniProt Q8IWQ3)	4.01
CCn1c(-c2nonc2N)nc2ccccc21	Serine/threonine-protein kinase BRSK2 (Homo sapiens) (UniProt Q8IWQ3)	9.49
Fc1ccc(-c2nn3ccccc3c2-c2ccncc2)cc1	Serine/threonine-protein kinase BRSK2 (Homo sapiens) (UniProt Q8IWQ3)	0.78
CCN1CCC(CC(=O)Nc2n[nH]c3nnc(-c4cccc(F)c4F)cc23)CC1	Serine/threonine-protein kinase BRSK2 (Homo sapiens) (UniProt Q8IWQ3)	-0.1
c1cc(-c2cnn3nc(N4CCOCC4)ccc23)nc(NC2CC2)n1	Serine/threonine-protein kinase BRSK2 (Homo sapiens) (UniProt Q8IWQ3)	7.84
Fc1ccc(-c2nn3ncccc3c2-c2ccnc(Nc3ccc4c(c3)OCCO4)n2)cc1	Serine/threonine-protein kinase BRSK2 (Homo sapiens) (UniProt Q8IWQ3)	-0.44
COc1cccc(-c2c[nH]c3c(N/N=C/c4ccncc4)ncnc23)c1	Serine/threonine-protein kinase BRSK2 (Homo sapiens) (UniProt Q8IWQ3)	29.8
COc1cc(N2CCN(C(C)C)CC2)ccc1Nc1nc(Nc2ccc(F)cc2C(N)=O)c2cc[nH]c2n1	Serine/threonine-protein kinase BRSK2 (Homo sapiens) (UniProt Q8IWQ3)	1.71
NC(=O)c1sc(-n2cnc3ccc(C(F)(F)F)cc32)cc1OCc1ccccc1Br	Serine/threonine-protein kinase BRSK2 (Homo sapiens) (UniProt Q8IWQ3)	4.25
O=C(O[C@H]1CN[C@H](C#Cc2cc3ncnc(Nc4ccc(Cc5ccccc5)cc4)c3s2)C1)N1CCOCC1	Serine/threonine-protein kinase BRSK2 (Homo sapiens) (UniProt Q8IWQ3)	2.92
CCn1c(-c2nonc2N)nc2c(C#CC(C)(C)O)ncc(OC3CCNCC3)c21	Serine/threonine-protein kinase BRSK2 (Homo sapiens) (UniProt Q8IWQ3)	19.2

src = ChEMBL document CHEMBL1961873
